Recorded values, source patent US10034861B2.

Target: PDE1B (Homo sapiens (Human), UniProt Q01064)
Sequence (Q01064 whole entry): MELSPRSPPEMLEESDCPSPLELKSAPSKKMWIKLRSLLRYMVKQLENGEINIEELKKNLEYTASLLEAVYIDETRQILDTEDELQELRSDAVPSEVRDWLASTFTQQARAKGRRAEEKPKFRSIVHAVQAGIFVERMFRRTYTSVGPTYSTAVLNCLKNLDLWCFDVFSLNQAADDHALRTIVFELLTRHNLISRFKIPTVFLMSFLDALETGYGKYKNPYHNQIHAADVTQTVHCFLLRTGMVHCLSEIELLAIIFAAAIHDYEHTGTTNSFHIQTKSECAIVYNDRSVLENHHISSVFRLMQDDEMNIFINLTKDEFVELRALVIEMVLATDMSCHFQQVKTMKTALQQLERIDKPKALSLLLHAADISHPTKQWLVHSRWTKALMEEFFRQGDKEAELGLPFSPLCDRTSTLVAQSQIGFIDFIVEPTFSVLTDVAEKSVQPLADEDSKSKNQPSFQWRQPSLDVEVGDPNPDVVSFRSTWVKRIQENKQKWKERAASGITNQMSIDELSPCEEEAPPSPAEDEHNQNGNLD
Assay: PDE1 inhibition assay (PDE1B)
Format: biochemical
Conditions: 15 nM tritium labelled cAMP, 1 hr at room temperature, SPA beads; read-out: PDE1B, IC50
Answer each item with its documented IC50.
Note: unit nM is implicit; provide only the numeric part.

Endpoint output: IC50 of CCOc1ncccc1-c1cc(NCc2cn(C)cn2)c2c(n1)c(C)nn2C(C)C [Example 58, 2,2,2-trifluoroacetate] . Value?
0.17

Item: CCOc1ncccc1-c1cc(NCc2ccnc(C)c2)c2c(n1)c(C)nn2C(C)C [Example 103]
2.9

Note, next up: CCOc1ncccc1-c1cc(NCc2ccnc(OC)c2)c2c(n1)c(C)nn2C(C)C [Example 104]
0.16

Now the same for CCOc1ncccc1-c1cc(NCc2ncccc2OC)c2c(n1)c(C)nn2C(C)C [Example 118]
0.42

---

Consider the following compounds; for each one, report its pIC50.
Target: PDE1A (Homo sapiens (Human))
Sequence (P54750 whole entry): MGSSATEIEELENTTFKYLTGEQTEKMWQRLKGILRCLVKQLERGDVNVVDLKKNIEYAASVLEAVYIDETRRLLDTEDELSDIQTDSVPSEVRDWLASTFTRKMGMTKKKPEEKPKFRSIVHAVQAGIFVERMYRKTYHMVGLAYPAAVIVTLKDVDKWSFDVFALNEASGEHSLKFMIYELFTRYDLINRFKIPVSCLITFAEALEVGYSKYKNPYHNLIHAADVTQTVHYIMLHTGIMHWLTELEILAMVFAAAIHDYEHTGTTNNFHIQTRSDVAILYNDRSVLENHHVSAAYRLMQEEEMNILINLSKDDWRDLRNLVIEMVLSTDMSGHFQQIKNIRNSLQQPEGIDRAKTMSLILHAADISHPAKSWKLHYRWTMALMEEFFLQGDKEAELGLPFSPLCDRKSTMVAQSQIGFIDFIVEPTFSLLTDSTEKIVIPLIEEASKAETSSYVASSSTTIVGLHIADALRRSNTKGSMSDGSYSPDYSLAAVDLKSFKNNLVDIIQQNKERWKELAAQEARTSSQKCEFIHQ
Assay: biochemical
Assay type: biochemical
Details: 15 nM tritium labelled cAMP, 1 hr at room temperature, SPA beads
Please report pIC50 as the negative decimal logarithm of the molar concentration, giving only the number.

Which pIC50 is reported with PDE1A (Homo sapiens (Human)) for this entry: COc1ccccc1-c1cc(NCc2cnn(C)c2)c2c(n1)c(C)nn2C(C)C [Example 63] ?
7.19

Same for CCOc1ncccc1-c1cc(NCc2ccncn2)c2c(n1)c(C)nn2C(C)C [Example 73]
7.09

Another compound to check: CCOc1ncccc1-c1cc(NCc2ccn(C)n2)c2c(cnn2C(C)C)n1 [Example 19]
7.18

Similarly, COc1ncccc1CNc1cc(-c2ccnn2C)nc2c(C)nn(C(C)C)c12 [Example 175] ?
7.08

Another compound to check: Cc1nn(C(C)C)c2c(NCc3ncn(C)n3)cc(-c3ccc[nH]c3=O)nc12 [Example 186]
7.19

Please do the same for Cc1nn(C(C)C)c2c(NCc3cnn(C)c3)cc(-n3cncn3)nc12 [Example 185] as well.
7.00

Would you kindly repeat that for CCOc1ncccc1-c1cc(NCc2cnn(C)c2)c2c(n1)c(C)nn2C1COC1 [Example 27] ?
7.03

Repeat for the following compound: CCOc1ncccc1-c1cc(NCc2cc(C)no2)c2c(cnn2C(C)C)n1 [Example 42]
7.09

Similarly, CCOc1ncccc1-c1cc(NCc2cnn(C)c2)c2c(n1)c(C)nn2C1CC1 [Example 12] ?
6.70

Same read-out for CCOc1ncccc1-c1cc(NCc2ncn(C)n2)c2c(cnn2C(C)C)n1 [Example 56] ?
7.80

CCOc1ncccc1-c1cc(NCc2ccc(C)nc2)c2c(n1)c(C)nn2C(C)C [Example 87] , same question.
8.20

---

Biological target: PDE1C (Homo sapiens (Human), UniProt Q14123)
Sequence (Q14123 whole entry): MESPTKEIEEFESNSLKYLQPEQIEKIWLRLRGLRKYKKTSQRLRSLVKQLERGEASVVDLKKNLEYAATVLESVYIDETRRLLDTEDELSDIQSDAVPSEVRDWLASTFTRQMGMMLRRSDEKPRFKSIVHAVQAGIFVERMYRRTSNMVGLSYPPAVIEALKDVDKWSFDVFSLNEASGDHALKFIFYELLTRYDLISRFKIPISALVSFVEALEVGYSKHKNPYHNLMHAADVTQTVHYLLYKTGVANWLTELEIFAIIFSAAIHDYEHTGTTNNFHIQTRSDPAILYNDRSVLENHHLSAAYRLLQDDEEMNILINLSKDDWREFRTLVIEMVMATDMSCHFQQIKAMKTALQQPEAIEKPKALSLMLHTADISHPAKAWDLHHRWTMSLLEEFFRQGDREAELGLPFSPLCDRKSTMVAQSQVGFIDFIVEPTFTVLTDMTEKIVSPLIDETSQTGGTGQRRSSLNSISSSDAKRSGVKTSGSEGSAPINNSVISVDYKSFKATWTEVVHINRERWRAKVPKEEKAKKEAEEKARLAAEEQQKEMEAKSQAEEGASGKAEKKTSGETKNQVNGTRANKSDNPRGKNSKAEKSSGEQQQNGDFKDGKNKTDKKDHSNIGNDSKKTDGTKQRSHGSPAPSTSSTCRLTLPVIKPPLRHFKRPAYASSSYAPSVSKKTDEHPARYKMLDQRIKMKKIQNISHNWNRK
Assay: biochemical
Assay type: biochemical
Conditions: 15 nM tritium labelled cAMP, 1 hr at room temperature, SPA beads
Consider the following molecules; for each one, report its log10 of IC50.
Please be aware that the numbers have been log10-transformed from IC50 in nM.

Report log10 of IC50 for CCOc1ncccc1-c1cc(NCc2cn(C)cn2)c2c(cnn2C(C)C)n1 please.
1.46

Record: CCOc1ncccc1-c1cc(NCc2ccc(C(F)F)nc2)c2c(n1)c(C)nn2C(C)C
1.41

Repeat with CCOc1ncccc1CNc1cc(-c2cccnc2OCC)nc2c(C)nn(C(C)C)c12
2.60

Next molecule: CCOc1ncccc1-c1cc(NCc2nccn2C)c2c(cnn2C(C)C)n1
2.99

Same again, this time with Cc1nn(C(C)C)c2c(NCc3cnn(C)c3)cc(-c3cnnn3C)nc12
2.23

Can you handle CCOc1ncccc1-c1cc(NCc2ccc(OC)nc2)c2c(n1)c(C)nn2C(C)C next?
1.83

Same lookup for CCOc1ncccc1-c1cc(NCc2ccccc2)c2c(cnn2C(C)C)n1 , please.
2.70

Another molecule: CCOc1ncccc1-c1cc(NCc2nccs2)c2c(cnn2C(C)C)n1
2.78

// same read-out, input: CCOc1ncccc1-c1cc(NCc2cccc(C)n2)c2c(n1)c(C)nn2C(C)C
1.63

Same read-out for CCOc1ncccc1-c1cc(CNc2cncc(OC)c2)c2c(n1)c(C)nn2C(C)C ?
1.89

Try the molecule CCOc1ncccc1-c1cc(NCc2cnn(C)c2)c2c(n1)c(CF)nn2C(C)C
1.41

What would you report for CCOc1ncccc1-c1cc(NCc2cccc(OC)n2)c2c(n1)c(C)nn2C(C)C ?
1.53

Next up: CCNc1ncccc1-c1cc(NCc2cnn(C)c2)c2c(n1)c(C)nn2C(C)C
2.41

Param item: CCOc1ncccc1-c1cc(NCc2ccn(C)n2)c2c(n1)c(C)nn2C(C)C
1.08

Here is the next molecule: CCCOc1ncccc1-c1cc(NCc2nnn(C)n2)c2c(n1)c(C)nn2C(C)C
1.23
